# System: HeLa Kyoto;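 also: synchronized HeLa Kyoto cells (double thymidine block for G1/S, nocodazole release for mitosis), protein amounts in NP-40 versus SDS lysates quantified by mass spectrometry, three biological replicates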
# testMethodNotes: solubility change mitosis vs G1/S (difference of NP-40 vs SDS log2 ratios) (log2 ratio difference); higher = more soluble in mitosis
metric: solubility change mitosis (log2)
Give a plain numeric answer without units written out.

As a guide, the following entries are already answered.
{"residueSequence": "MIIYRDLISHDEMFSDIYKIREIADGLCLEVEGKMVSRTEGNIDDSLIGGNASAEGPEGEGTESTVITGVDIVMNHHLQETSFTKEAYKKYIKDYMKSIKGKLEEQRPERVKPFMTGAAEQIKHILANFKNYQFFIGENMNPDGMVALLDYREDGVTPYMIFFKDGLEMEKC [TPT1]", "solubility change mitosis (log2)": -0.0912}
{"residueSequence": "MPLTGVGPGSCRRQIIRALCLLLLLLHAGSAKNIWKRALPARLAEKSRAEEAGAPGGPRQPRADRCPPPPRTLPPGACQAARCQADSECPRHRRCCYNGCAYACLEAVPPPPVLDWLVQPKPRWLGGNGWLLDGPEEVLQAEACSTTEDGAEPLLCPSGYECHILSPGDVAEGIPNRGQCVKQRRQADGRILRHKLYKEYPEGDSKNVAEPGRGQQKHFQ [WFDC1]", "solubility change mitosis (log2)": 0.522}

Attention now shifts to the item below.
For MATKGGTVKAASGFNAMEDAQTLRKAMKGLGTDEDAIISVLAYRNTAQRQEIRTAYKSTIGRDLIDDLKSELSGNFEQVIVGMMTPTVLYDVQELRRAMKGAGTDEGCLIEILASRTPEEIRRISQTYQQQYGRSLEDDIRSDTSFMFQRVLVSLSAGGRDEGNYLDDALVRQDAQDLYEAGEKKWGTDEVKFLTVLCSRNRNHLLHVFDEYKRISQKDIEQSIKSETSGSFEDALLAIVKCMRNKSAYFAEKLYKSMKGLGTDDNTLIRVMVSRAEIDMLDIRAHFKRLYGKSLYSFIKGDTSGDYRKVLLVLCGGDD [ANXA4] , write its solubility change mitosis (log2).
0.0251
